Cited source for all entries: the supplement of paper PMC10567573

Answer each item with its documented protein stability index.
B1: PTPN9 (parent)
chain: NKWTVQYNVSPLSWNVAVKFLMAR

variants of: B1; test: protein stability index of a GFP-peptide fusion (GPS, HEK-293T) (PSI 1-6); higher = more stable; details: c terminus: a fixed tail appended;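 also: lentivirally expressed fusions sorted by FACS into six bins by GFP to DsRed ratio, PSI derived from sequencing read proportions per bin multiplied by bin number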
Numbers only.

INSERT INTO results (variant_key, endpoint_name, observed_value) VALUES
  ('S10I', 'protein stability index', 1.62);

Go through the items and report each one's protein stability index.
1. N15I
2. V16C

*A*
3.96
3.82

Go through the items and report each one's protein stability index.
1. A23H
2. W14N

*A*
1: 3.31; 2: 2.06

Go through the items and report each one's protein stability index.
1. V5H
2. M22H
3. Q6R

*A*
1. 3.13
2. 2.36
3. 4.19
